- assayed-system: M4
- assay-remarks: ELISA on coated antigen, column M4
observed-property: absorbance at 490 nm
Reply: number alone, nothing else.

Entry under test: PDL1-31D9 (antibody, V domains shown, Only FR/CDR pieces are tied to the clone) VH: QMQLVESGGGLVQPGGSLRLSCSASGFTFSSYVMHWVRQAPGKGLEYVSAISSNGGSTYYADSVKGRFTISRDNSKNTLYLQMSSLRSEDTAVYYCAREHFSTYSYGVDVWGPGTTVTVSS VL: DIVMTQTPLSLPVTPGEPASISCRSSQSLLDSDDGNTYLDWYLQKPGQSPQLLIYMISFRASGVPDRFSGSGSGTDFTLKISRVEAEDSGIYYCMQRVEFPYTFGQGTKLEIK . Its absorbance at 490 nm was 1.8
